src = ChEMBL document CHEMBL1125218

- Tested On: Protein kinase C, PKC; classical (Rattus norvegicus, UniProt P05696+P68403+P63319)
- Measurement Protocol: In vitro inhibition of [32P] incorporation into histones by rat brain partially purified Protein kinase C in the presence of PMA, [Ca2+] and phosphatidylserine.
Readout Label: IC50 (µM)

Consider the reported IC50 for these compounds:
[
  {
    "Compound": "CCCCCCCCCCCCC(=O)N1CCCCC1CNC(=O)[C@@H](N)CCCN (stereo partly drawn)",
    "IC50 / µM": 23
  },
  {
    "Compound": "CCCCCCCCCCCCC(=O)N1CCCCC1CNC(=O)[C@@H](N)CCCN=C(N)N (stereo partly drawn)",
    "IC50 / µM": 72
  },
  {
    "Compound": "CCCCCCCCCCCCC(=O)N1CCCCC1CNC(=O)[C@@H](N)CCCCN (stereo partly drawn)",
    "IC50 / µM": 20
  },
  {
    "Compound": "CCCCCCCCCCCCC(=O)N1CCCCC1CNC(=O)[C@@H](N)Cc1ncc[nH]1 (stereo partly drawn)",
    "IC50 / µM": 60
  },
  {
    "Compound": "CCCCCCCCCCCCC(=O)N1CCCCC1CNC(=O)[C@@H](N)CO (stereo partly drawn)",
    "IC50 / µM": 45
  },
  {
    "Compound": "CCCCCCCCCCCCC(=O)N1CCCCC1CNC(=O)[C@@H](N)CCC(=O)OCc1ccccc1 (stereo partly drawn)",
    "IC50 / µM": 92
  },
  {
    "Compound": "CCCCCCCCCCCCCCCCCC(=O)N1CCCCC1CNC(=O)[C@@H](N)CCCCN (stereo partly drawn)",
    "IC50 / µM": 36
  },
  {
    "Compound": "CCCCCCCCCCCCCCCC(=O)N1CCCCC1CNC(=O)[C@@H](N)CCCCN (stereo partly drawn)",
    "IC50 / µM": 45
  },
  {
    "Compound": "CCCCCCCCCCCCC(=O)N1CCCCC1CNC(=O)[C@H](C)N (stereo partly drawn)",
    "IC50 / µM": 52
  },
  {
    "Compound": "CCCCCCCCCCCCC(=O)N1CCCCC1CNC(=O)[C@@H](N)CCC(N)=O (stereo partly drawn)",
    "IC50 / µM": 72
  }
]

P. CCCCCCCCCCCCC(=O)N1CCCCC1CNC(=O)[C@H](N)CCCCN (stereo partly drawn)
Q. CCCCCCCCCCCCC(=O)N1CCCCC1CNC(=O)[C@@H](N)CCSC (stereo partly drawn)
R. CCCCCCCCCCCCC(=O)N1CCCCC1CNC(=O)CN (stereo not drawn)
S. CCCCCCCCCCC(=O)N1CCCCC1CNC(=O)[C@@H](N)CCCCN (stereo partly drawn)
T. CCCCCCCCCCCC(=O)N1CCCCC1CNC(=O)[C@@H](N)CCCCN (stereo partly drawn)
Q: Task for the reader: rank each entry by its IC50, from the minimum upward. List the labels, following the order given in the request.
Result: P, R, T, Q, S
(P: 34 µM, R: 51 µM, T: 102 µM, Q: 159 µM, S: 299 µM)

###

- Tested On: Protein kinase C, PKC; classical (Rattus norvegicus, UniProt P05696+P68403+P63319)
- Measurement Protocol: In vitro inhibition of [32P] incorporation into histones by rat brain partially purified Protein kinase C in the presence of PMA, [Ca2+] and phosphatidylserine.
Readout Label: IC50 (µM)

[
  {
    "Compound": "CCCCCCCCCCCCC/C=C/[C@@H](O)[C@@H](N)CO",
    "IC50 (µM)": 57
  },
  {
    "Compound": "CCCCCCCCCCCCCCCCC(=O)N1CCCCC1CNC(=O)[C@@H](N)CCCCN (stereo partly drawn)",
    "IC50 (µM)": 46
  },
  {
    "Compound": "CCCCCCCCCCCCCC(=O)N1CCCCC1CNC(=O)[C@@H](N)CCCCN (stereo partly drawn)",
    "IC50 (µM)": 48
  }
]
